- assayed-system: Lysosomal acid glucosylceramidase (Homo sapiens, UniProt P04062)
- Sequence (P04062 whole entry): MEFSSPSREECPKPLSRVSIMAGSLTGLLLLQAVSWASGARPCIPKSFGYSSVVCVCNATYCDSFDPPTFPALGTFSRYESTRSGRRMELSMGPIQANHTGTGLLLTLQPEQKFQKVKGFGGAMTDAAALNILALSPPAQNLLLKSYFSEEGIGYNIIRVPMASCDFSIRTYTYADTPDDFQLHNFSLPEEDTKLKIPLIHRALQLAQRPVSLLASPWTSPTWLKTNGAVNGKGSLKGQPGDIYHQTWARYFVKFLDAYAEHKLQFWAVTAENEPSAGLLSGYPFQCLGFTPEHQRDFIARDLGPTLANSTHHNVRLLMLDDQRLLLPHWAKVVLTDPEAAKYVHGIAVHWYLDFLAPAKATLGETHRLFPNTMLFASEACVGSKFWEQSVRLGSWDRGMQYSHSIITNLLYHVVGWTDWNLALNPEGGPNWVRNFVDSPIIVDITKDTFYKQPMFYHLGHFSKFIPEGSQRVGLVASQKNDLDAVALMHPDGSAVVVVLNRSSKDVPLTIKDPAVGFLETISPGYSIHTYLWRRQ
- procedure-summary: Inhibition of human GCase assessed as reduction of 4-methylumbelliferone liberation using 4-methylumbelliferyl-beta-glucopyranoside as substrate preincubated with enzyme for 10 mins followed by substrate addition by fluorescence spectrophotometry
outcome-measure: IC50
Put your answer as a value accompanied by its unit after it.

Challenge: For CCCCN1C[C@H](CO)[C@@H](O)[C@H](O)C1 , what is its reported IC50?
Response given: 44 µM

====

# maps each entry to its inhibition
- assayed-system: Alpha-mannosidase (Canavalia ensiformis) (UniProt C0HJB3)
- Sequence (whole entry): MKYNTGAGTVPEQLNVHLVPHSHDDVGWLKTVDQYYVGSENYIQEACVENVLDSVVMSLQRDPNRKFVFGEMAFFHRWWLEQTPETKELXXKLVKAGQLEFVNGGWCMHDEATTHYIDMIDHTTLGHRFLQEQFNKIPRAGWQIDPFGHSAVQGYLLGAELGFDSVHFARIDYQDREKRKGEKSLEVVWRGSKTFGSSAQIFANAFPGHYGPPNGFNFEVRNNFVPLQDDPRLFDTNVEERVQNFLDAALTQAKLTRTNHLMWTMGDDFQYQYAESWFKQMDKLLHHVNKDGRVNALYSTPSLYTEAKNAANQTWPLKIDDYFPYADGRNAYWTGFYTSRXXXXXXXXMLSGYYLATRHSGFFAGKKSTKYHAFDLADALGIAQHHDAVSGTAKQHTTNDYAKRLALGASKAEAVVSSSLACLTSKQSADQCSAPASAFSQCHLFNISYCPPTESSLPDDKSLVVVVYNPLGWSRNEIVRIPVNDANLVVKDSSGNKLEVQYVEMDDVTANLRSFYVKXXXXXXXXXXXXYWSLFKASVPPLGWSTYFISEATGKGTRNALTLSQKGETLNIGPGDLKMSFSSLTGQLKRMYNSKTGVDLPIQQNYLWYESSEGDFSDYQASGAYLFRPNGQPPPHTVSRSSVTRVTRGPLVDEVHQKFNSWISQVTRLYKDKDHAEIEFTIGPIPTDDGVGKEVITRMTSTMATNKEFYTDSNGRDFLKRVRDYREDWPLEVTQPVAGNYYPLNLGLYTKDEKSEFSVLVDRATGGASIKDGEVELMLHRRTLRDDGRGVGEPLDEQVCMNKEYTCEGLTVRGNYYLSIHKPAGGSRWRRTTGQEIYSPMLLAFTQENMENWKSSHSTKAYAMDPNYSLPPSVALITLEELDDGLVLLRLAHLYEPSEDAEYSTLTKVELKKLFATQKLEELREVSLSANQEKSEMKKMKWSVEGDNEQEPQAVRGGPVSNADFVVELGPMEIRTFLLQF
- procedure-summary: Inhibition of jack bean alpha-mannosidase assessed as reduction of p-nitrophenol release using p-nitrophenyl-glycoside as substrate at 1000 uM by spectrophotometric analysis
Answer with the figure and its unit, nothing else.

Challenge: Item: O[C@H]1[C@H](O)CN[C@@H]1c1ccc(-c2ccccc2)cc1 Test system: Alpha-mannosidase (Canavalia ensiformis) (UniProt C0HJB3) Read-out: inhibition Value: ?
Response given: 0%

Challenge: Item OC[C@@H]1NCC(O)C1O (single isomer, unassigned) with Alpha-mannosidase (Canavalia ensiformis) (UniProt C0HJB3) - inhibition?
Response given: 0%

Challenge: Query for Alpha-mannosidase (Canavalia ensiformis) (UniProt C0HJB3): what inhibition does the record show for O[C@@H]1[C@@H](O)CN[C@H]1c1ccc(-c2ccccc2)cc1 ?
Response given: 0%

Challenge: Item O[C@@H]1[C@@H](O)CN[C@H]1c1ccccc1 with Alpha-mannosidase (Canavalia ensiformis) (UniProt C0HJB3) - inhibition?
Response given: 2%

Challenge: Any idea what inhibition came out for Cc1ccc([C@@H]2NC[C@H](O)[C@H]2O)cc1 on Alpha-mannosidase (Canavalia ensiformis) (UniProt C0HJB3)?
Response given: 0.4%

Challenge: Form: Entry = Cc1ccc([C@H]2NC[C@@H](O)[C@@H]2O)cc1 | System = Alpha-mannosidase (Canavalia ensiformis) (UniProt C0HJB3) | inhibition = ____
Response given: 0%

Challenge: I'm curious: which inhibition was measured for O[C@H]1[C@H](O)CN[C@@H]1c1ccc(F)cc1 tested on Alpha-mannosidase (Canavalia ensiformis) (UniProt C0HJB3)?
Response given: 0.8%

Challenge: # value lookup — system Alpha-mannosidase (Canavalia ensiformis) (UniProt C0HJB3), readout inhibition, item O[C@@H]1[C@@H](O)CN[C@H]1c1ccc(F)cc1
Response given: 1.2%

Challenge: Request: inhibition, test system Alpha-mannosidase (Canavalia ensiformis) (UniProt C0HJB3), entry O[C@H]1[C@H](O)CN[C@@H]1CCCc1ccccc1
Response given: 20.6%

Challenge: Item O[C@H]1[C@H](O)CN[C@@H]1c1ccccc1 with Alpha-mannosidase (Canavalia ensiformis) (UniProt C0HJB3) - inhibition?
Response given: 8.3%

Challenge: What inhibition appears in the records for this compound with Alpha-mannosidase (Canavalia ensiformis) (UniProt C0HJB3)? O[C@H]1[C@H](CCCc2ccccc2)NC[C@@H]1O
Response given: 11.5%
